# System: HCC1569
# experiment description: Cell proliferation assay, PARPi resistant panel
# Format: cell-based
# measurement context: Homo sapiens; HCC1569, Breast, BRCA2 alteration; 5 population doublings
pIC50: −log10 of the molar value.

{"columns": ["compound", "pIC50"],
 "data": [
  ["C[C@H]1CN(c2cc(S(=O)(=O)NC3(C)CC3)cc3c2cnn3-c2nnc(C(F)F)s2)C[C@H](C)N1", 7.10],
  ["NC(=O)c1cccc2cn(-c3ccc([C@@H]4CCCNC4)cc3)nc12 [Niraparib, reference compound]", 6.24]
]}

* * *

# experiment description: Kinetic solubility in PBS pH 2.0 and pH 7.4
# Type: physicochemical
# measurement context: aqueous buffer, kinetic from dmso stock, PBS pH 2.0, 25° C., * n <3 runs, read-out: Kinetic Solubility pH 2.0
# Protocol: • Control compound diclofenac sodium (LOT #BCBW9128) was purchased from Sigma Chemical Co. • 1.5 mL glass flat bottom vials (BioTech Solutions) • Molded PTFE/SIL plugs (BioTech Solutions) • PTFE encapsulated stir stick (V&P Scientific) • MultiScreenHTS HV (0.45 μm) 96 well plate (Millipore, MSHVN4510 or MSHVN4550) • Eppendorf Thermomixer Comfort • Vacuum Manifold ORVMN96. • PBS pH 2.0 and pH 7.4 was prepared in our laboratory […] • 1. […] The samples were evaluated by LC-MS/MS analysis.
condition met means recorded solubility kinetic at 24 h is 30 µM or above; condition not met means it is below 30 µM.

{"columns": ["compound", "label value"],
 "data": [
  ["CC(C)C(=O)N1CCN(c2cc(S(=O)(=O)NC3(C#N)CC3)cc3c2cnn3-c2nnc(C(F)F)s2)C[C@H]1C", "condition not met"],
  ["C[C@H]1CN(c2cc(S(=O)(=O)NC3(C)CC3)cc3c2cnn3-c2nnc(C(F)F)s2)C[C@H](C)N1 [drawing 29]", "condition met"],
  ["CN(C)C(=O)N1CCN(c2cc(S(=O)(=O)NC3(C#N)CC3)cc3c2cnn3-c2nnc(C(F)F)s2)CC1", "condition not met"],
  ["C[C@@H]1CN(c2cc(S(=O)(=O)NC3(C)CC3)cc3c2cnn3-c2nnc(C(F)F)s2)C[C@@H](C)N1", "condition met"],
  ["CN1CCN(c2cc(S(=O)(=O)NC3(C#N)CC3)cc3c2cnn3-c2nnc(C(F)F)s2)CC1", "condition met"],
  ["C[C@@H]1CN(c2cc(S(=O)(=O)NC3(C#N)CC3)cc3c2cnn3-c2nnc(C(F)F)s2)CCN1C(=O)N(C)C", "condition not met"],
  ["CN(C)C(=O)N1CCN(c2cc(S(=O)(=O)NC3(C)CC3)cc3c2cnn3-c2nnc(C(F)F)s2)CC1", "condition not met"],
  ["C[C@H]1CN(c2cc(S(=O)(=O)NC3(C#N)CC3)cc3c2cnn3-c2nnc(C(F)F)s2)CCN1C(=O)N(C)C", "condition not met"],
  ["Cc1nnc(-n2ccc3ccc(S(=O)(=O)NC4(C)CC4)cc32)s1", "condition not met"]
]}

* * *

solubility kinetic at 24 h values by entry
# experiment description: Kinetic solubility in PBS pH 2.0 and pH 7.4
# Format: physicochemical
# measurement context: aqueous buffer, kinetic from dmso stock, PBS pH 7.4, 25° C., * n <3 runs, read-out: Kinetic Solubility pH 7.4

{"columns": ["molecule", "unit abbrev", "inequality operator", "solubility kinetic at 24 h"],
 "data": [
  ["CC(C)C(=O)N1CCN(c2cc(S(=O)(=O)NC3(C#N)CC3)cc3c2cnn3-c2nnc(C(F)F)s2)CC1", "µM", "=", 2.1],
  ["CC(C)C(=O)N1CCN(c2cc(S(=O)(=O)NC3(C#N)CC3)cc3c2cnn3-c2nnc(C(F)F)s2)C[C@H]1C", "µM", "=", 5.6],
  ["Cc1nnc(-n2ccc3ccc(S(=O)(=O)NC4(C)CC4)cc32)s1", "µM", "=", 24],
  ["C[C@@H]1CN(c2cc(S(=O)(=O)NC3(C)CC3)cc3c2cnn3-c2nnc(C(F)F)s2)C[C@H](C)N1", "µM", "=", 31],
  ["CC(C)C(=O)N1[C@H](C)CN(c2cc(S(=O)(=O)NC3(C#N)CC3)cc3c2cnn3-c2nnc(C(F)F)s2)C[C@@H]1C", "µM", "<", 0.03],
  ["C[C@@H]1CN(c2cc(S(=O)(=O)NC3(C)CC3)cc3c2cnn3-c2nnc(C(F)F)s2)C[C@@H](C)N1", "µM", "=", 41],
  ["CN(C)C(=O)N1CCN(c2cc(S(=O)(=O)NC3(C#N)CC3)cc3c2cnn3-c2nnc(C(F)F)s2)CC1", "µM", "=", 1.4],
  ["CN1CCN(c2cc(S(=O)(=O)NC3(C#N)CC3)cc3c2cnn3-c2nnc(C(F)F)s2)CC1", "µM", "=", 2.7],
  ["C[C@H]1CN(c2cc(S(=O)(=O)NC3(C)CC3)cc3c2cnn3-c2nnc(C(F)F)s2)C[C@H](C)N1 [drawing 29]", "µM", "=", 42],
  ["C[C@H]1CN(c2cc(S(=O)(=O)NC3(C#N)CC3)cc3c2cnn3-c2nnc(C(F)F)s2)CCN1C(=O)N(C)C", "µM", "=", 14],
  ["CC(C)C(=O)N1CCN(c2cc(S(=O)(=O)NC3(C#N)CC3)cc3c2cnn3-c2nnc(C(F)F)s2)C[C@@H]1C", "µM", "=", 8],
  ["C[C@@H]1CN(c2cc(S(=O)(=O)NC3(C#N)CC3)cc3c2cnn3-c2nnc(C(F)F)s2)CCN1C(=O)N(C)C", "µM", "=", 14],
  ["CN(C)C(=O)N1CCN(c2cc(S(=O)(=O)NC3(C)CC3)cc3c2cnn3-c2nnc(C(F)F)s2)CC1", "µM", "=", 0.3]
]}
